- MEASURED TARGET: SF3b complexes (Homo sapiens, UniProt O75533+Q7RTV0)
- Construct: endogenous in cells; host or cells: Nuclear extracts; A HeLa S3 extract preparation is described for the in vitro splicing assay
- TEST NAME: Scintillation proximity assay (SPA) with [3H]-labelled pladienolide probe
- Format: binding
- CONDITION PARAMETERS: SF3B1 (WT); geometric mean; read-out: SPA-ATS GMean IC50 (nM) SF3B1 (WT)
OBSERVED PROPERTY: IC50

compound=C/C(=C\c1cc(F)cc(N(C)C2CCN(C(=O)c3ccccc3)CC2)c1)[C@H]1OC(=O)C[C@H](O)CC[C@H](C)[C@@H](OC(=O)N2CCN(C)CC2)/C=C/[C@@H]1C observed_property=IC50 reported_measurement="42.3 nM"
compound=C/C(=C\c1cc(F)cc(N2CCN(S(C)(=O)=O)CC2)c1)[C@H]1OC(=O)C[C@H](O)CC[C@H](C)[C@@H](OC(=O)N2CCN(C)CC2)/C=C/[C@@H]1C observed_property=IC50 reported_measurement="6.54 nM"
compound=C/C(=C\c1cc(F)cc(N(C)C2CCN(C)CC2)c1)[C@H]1OC(=O)C[C@H](O)CC[C@H](C)[C@@H](OC(=O)N2CCN(C)CC2)/C=C/[C@@H]1C observed_property=IC50 reported_measurement="43.2 nM"
compound=C/C(=C\c1cccc(COC(=O)N(C)C)c1)[C@H]1OC(=O)C[C@H](O)CC[C@H](C)[C@@H](OC(=O)N2CCN(C)CC2)/C=C/[C@@H]1C observed_property=IC50 reported_measurement="11.7 nM"
compound=C/C(=C\c1cc(F)c2cnn(CC(=O)N3CCCC3)c2c1)[C@H]1OC(=O)C[C@H](O)CC[C@H](C)[C@@H](OC(=O)N2CCN(C)CC2)/C=C/[C@@H]1C observed_property=IC50 reported_measurement="4.38 nM"
compound="C/C(=C\\c1cc(F)cc(N2CCN(C(=O)Cn3cccn3)CC2)c1)[C@H]1OC(=O)C[C@H](O)CC[C@H](C)[C@@H](OC(=O)N2CCC(N(C)C)C2)/C=C/[C@@H]1C (stereo in doubt)" observed_property=IC50 reported_measurement="3.25 nM"
compound=C/C(=C\c1cc(F)cc(N(C)C2CCOCC2)c1)[C@H]1OC(=O)C[C@H](O)CC[C@H](C)[C@@H](OC(=O)N2CCN(C)CC2)/C=C/[C@@H]1C observed_property=IC50 reported_measurement="3.05 nM"
compound=C/C(=C\c1cc(F)cc(N2CCN(C(=O)Cn3cccn3)CC2)c1)[C@H]1OC(=O)C[C@H](O)CC[C@H](C)[C@@H](OC(=O)N2CCNC(=O)C2)/C=C/[C@@H]1C observed_property=IC50 reported_measurement="12.9 nM"
compound=C/C(=C\c1cc(F)cc(N(C)C2CCN(C(=O)c3cnco3)CC2)c1)[C@H]1OC(=O)C[C@H](O)CC[C@H](C)[C@@H](OC(=O)N2CCN(C)CC2)/C=C/[C@@H]1C observed_property=IC50 reported_measurement="2.61 nM"

----------
- Test system: Panc 05.04 cells (SF3b K700E mutant)
- TEST NAME: Cell proliferation and viability, CellTiter-Glo, 72 hours
- Type: cell-based
- CONDITION PARAMETERS: PANC0504.1 cells, 72 h; −100% cidal, 0% static, 100% maximal growth
CTGlo-ATS Mean MinResponse % 72 h PANC0504.1 values, listed per item
OBSERVED PROPERTY: CTGlo-ATS Mean MinResponse % 72 h PANC0504.1

structure_as_smiles=C/C(=C\c1cc(F)cc(N2CCN(CCN3CCOCC3)C2=O)c1)[C@H]1OC(=O)C[C@H](O)CC[C@H](C)[C@@H](OC(=O)N2CCN(C)CC2)/C=C/[C@@H]1C reported_measurement=−87.661%
structure_as_smiles=C/C(=C\c1cc(F)cc(N2CCC(=O)C2)c1)[C@H]1OC(=O)C[C@H](O)CC[C@H](C)[C@@H](OC(=O)N2CCN(C)CC2)/C=C/[C@@H]1C reported_measurement=−87.702%
structure_as_smiles=C/C(=C\c1cc(F)cc(N(C)C2COC2)c1)[C@H]1OC(=O)C[C@H](O)CC[C@H](C)[C@@H](OC(=O)N2CCN(C)CC2)/C=C/[C@@H]1C reported_measurement=−90.232%

----------
IC50 values, listed per item
- MEASURED TARGET: SF3b complexes (Homo sapiens, UniProt O75533+Q7RTV0)
- Construct: endogenous in cells; host or cells: Nuclear extracts; A HeLa S3 extract preparation is described for the in vitro splicing assay
- TEST NAME: Scintillation proximity assay (SPA) with [3H]-labelled pladienolide probe
- Assay type: binding
- CONDITION PARAMETERS: SF3B1 (WT); geometric mean; read-out: SPA-ATS GMean IC50 (nM) SF3B1 (WT)
OBSERVED PROPERTY: IC50 (nM)

structure_as_smiles=C/C(=C\c1cc(F)c2cnn(C3CCC(F)(F)CC3)c2c1)[C@H]1OC(=O)C[C@H](O)CC[C@H](C)[C@@H](OC(=O)N2CCN(C)CC2)/C=C/[C@@H]1C measured_target="SF3b complexes (Homo sapiens, UniProt O75533+Q7RTV0)" unit_label=nM reported_measurement=69.3
structure_as_smiles=C/C(=C\c1cc(F)c2nnn(CC3CCOCC3)c2c1)[C@H]1OC(=O)C[C@H](O)CC[C@H](C)[C@@H](OC(=O)N2CCN(C)CC2)/C=C/[C@@H]1C measured_target="SF3b complexes (Homo sapiens, UniProt O75533+Q7RTV0)" unit_label=nM reported_measurement=2.24
structure_as_smiles=C/C(=C\c1cc(C)cc2[nH]ncc12)[C@H]1OC(=O)C[C@H](O)CC[C@H](C)[C@@H](OC(=O)N2CCN(C)CC2)/C=C/[C@@H]1C measured_target="SF3b complexes (Homo sapiens, UniProt O75533+Q7RTV0)" unit_label=nM reported_measurement=2.4
structure_as_smiles=CN[C@H]1CCN(c2cc(F)cc(/C=C(\C)[C@H]3OC(=O)C[C@H](O)CC[C@H](C)[C@@H](OC(=O)N4CCN(C)CC4)/C=C/[C@@H]3C)c2)C1 measured_target="SF3b complexes (Homo sapiens, UniProt O75533+Q7RTV0)" unit_label=nM reported_measurement=26
